These entries and their values trace back to patent US7692004B2.

- assay_info: Bleaching action in washing agents (LINITEST, DY increase)
- run_conditions: 1:1 Mn complex with ligand, 50 μmol/l; H2O2 8.6 mmol/l; ECE washing agent 7.5 g/l; 30 minutes at 40° C.; versus no catalyst
Would you mind labelling by DY increase? At or over 5 is satisfied, under is not satisfied.

Reference set (2 entries):
molecule	class_label
c1ccc(-c2cc(N3CCCCC3)cc(-c3ccccn3)n2)nc1 [Ligand L10]	not satisfied
c1ccc(-c2cc(N3CCCCCC3)cc(-c3ccccn3)n2)nc1 [Ligand L9, 4′-Azepan-1-yl-[2,2′;6′,2″]terpyridine]	not satisfied

Next item in the queue.
Is DY increase at least 5? Consider CN(CCO)c1ccnc(-c2cc(N(C)CCO)cc(-c3cc(N(C)CCO)ccn3)n2)c1 [Ligand L25]
satisfied
